- Assay System: UniProt P03372
- Sequence (P03372 whole entry): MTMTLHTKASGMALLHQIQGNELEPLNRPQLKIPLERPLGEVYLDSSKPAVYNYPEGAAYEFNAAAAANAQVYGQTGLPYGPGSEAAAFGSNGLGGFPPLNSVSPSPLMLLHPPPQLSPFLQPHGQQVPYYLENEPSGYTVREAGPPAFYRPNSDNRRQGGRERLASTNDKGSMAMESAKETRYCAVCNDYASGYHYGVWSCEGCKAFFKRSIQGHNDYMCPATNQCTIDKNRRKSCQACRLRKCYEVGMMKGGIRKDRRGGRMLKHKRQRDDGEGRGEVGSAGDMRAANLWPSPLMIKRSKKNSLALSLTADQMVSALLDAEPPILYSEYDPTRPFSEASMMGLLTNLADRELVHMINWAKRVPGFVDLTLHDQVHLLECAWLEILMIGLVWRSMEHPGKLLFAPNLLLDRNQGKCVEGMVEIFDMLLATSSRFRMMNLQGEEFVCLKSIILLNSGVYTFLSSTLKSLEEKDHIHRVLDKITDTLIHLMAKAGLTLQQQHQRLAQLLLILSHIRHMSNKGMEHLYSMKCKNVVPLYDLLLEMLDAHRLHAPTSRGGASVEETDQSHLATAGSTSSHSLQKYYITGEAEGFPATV
- Procedure Text: Inhibition of fluoromone binding to recombinant human full length untagged ERalpha expressed in insect cells after 2 hrs by fluorescence polarization assay
Readout Type: IC50 (nM)

INSERT INTO results (compound, unit_string, reported_measurement) VALUES
  ('COc1cc(C2Oc3c(OC)cc(/C=C/CO)cc3C2CO)ccc1O (stereo unspecified)', 'nM', 61.9);
